Target: T1, PfAMA1 (DI-DII of Plasmodium falciparum Apical Membrane Antigen 1, 3D7, residues 104-438) (Plasmodium falciparum, UniProt Q7KQK5 104-438)
T1 construct: codon-optimized synthetic gene; also called native PfAMA1; PfAMA1 DI-DII construct
T1 sequence: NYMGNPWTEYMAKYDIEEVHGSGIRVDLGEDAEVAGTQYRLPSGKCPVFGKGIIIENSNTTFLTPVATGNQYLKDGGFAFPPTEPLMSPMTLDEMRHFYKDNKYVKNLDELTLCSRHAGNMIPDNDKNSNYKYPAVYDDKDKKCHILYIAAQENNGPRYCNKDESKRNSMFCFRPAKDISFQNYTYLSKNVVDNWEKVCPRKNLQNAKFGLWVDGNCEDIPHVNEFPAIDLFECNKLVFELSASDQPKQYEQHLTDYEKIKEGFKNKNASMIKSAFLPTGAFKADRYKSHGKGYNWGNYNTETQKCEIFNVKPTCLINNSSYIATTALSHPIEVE
Assay: fluorescence polarisation; anisotropy titration at 30°C; 10 nM F*PfRON2sp1 titrated with protein (0 to 10 μM); PBS pH 7.4, at least 0.1% BSA
Conditions: both partners purified
Bridge positions count the residues as written; N and C are the ends. Ends that are not written are not given here. * marks the point of attachment. 5FAM = O=C1OC2(c3ccc(O)cc3Oc3cc(O)ccc32)c2ccc(C(=O)*)cc21
Property Name: Kd (nM)

1. 5FAM-DITQQAKDIGAGPVASCFTTRMSPPQQICLNSVVNTALS (disulfide 17-29, Rhoptry Neck Protein 2 (RON2) of Plasmodium falciparum, residues 2021-2059; also called labeled peptide; labeled probe; source: synthetic peptide, bought: Kinexus (purity ≥ 95%)) [F*PfRON2sp1 (39 aa) [2021-2059], fluorescein-labeled PfRON2sp1 peptide] :: 61
